Tested on: HBV viral production from HepAD38 cells
Test: Activity of test compounds on viral production from HepAD38 cells (viral load by qPCR of HBV core sequence in supernatant)
Format: cell-based
Details: Hepatitis B virus, 120 h, 5 days incubation, HBV DNA in supernatant by qPCR, top concentration 10 μM, read-out: Viral Load EC50 Activity range
Method: Assay Measuring Activity of Test Compounds on Viral Production from HepAD38 Cells […] Subsequently viral load production was assayed by quantitative PCR (qPCR) of the HBV core sequence. […] Viral load was quantified against known HBV DNA standards by using ViiA™ 7 Software. […] Incubated the plate at room temperature for 10 min on an orbital shaker, and then read the plate with a plate reader (TECAN M1000 or Envision). […]
pEC50: −log10 of the molar value.
recorded endpoint: pEC50

{"molecule": "CN1C(C(=O)Nc2ccc(F)c(Cl)c2)CC(c2cc(-c3cnn(CCO)c3)cs2)NS1(=O)=O (racemic)", "system": "HBV viral production from HepAD38 cells", "recorded endpoint": "pEC50", "observed measurement": "5.30 to 6.00"}
{"molecule": "C#CCCN1[C@H](C(=O)Nc2ccc(F)c(Cl)c2)C[C@H](c2nccs2)NS1(=O)=O", "system": "HBV viral production from HepAD38 cells", "recorded endpoint": "pEC50", "observed measurement": "> 6.00"}
{"molecule": "CN1[C@@H](C(=O)Nc2ccc(F)c(Cl)c2)C[C@@H](c2ccccn2)NS1(=O)=O", "system": "HBV viral production from HepAD38 cells", "recorded endpoint": "pEC50", "observed measurement": "< 5.30"}
{"molecule": "CN1[C@H](C(=O)Nc2ccc(F)c(Cl)c2)C[C@H](c2ncc(-c3cnn(C)c3)s2)NS1(=O)=O", "system": "HBV viral production from HepAD38 cells", "recorded endpoint": "pEC50", "observed measurement": "> 6.00"}
